System: DU-145
method: Cytotoxicity against human DU145 cells assessed as cell growth at 0.1 uM after 48 hrs by sulforhodamine B assay relative to control
Format: functional
experimental conditions: DU-145, 48 h, read-out: Activity
test readout: growth at 0.1 µM (%)
Entry rule: numbers only, all in %.

Worked cases, growth at 0.1 µM given:
[
  {
    "smiles str": "COc1cc(-c2cc(/C=C/C(=O)c3ccc4c(c3)OCO4)[nH]n2)cc(OC)c1OC",
    "result": 102
  },
  {
    "smiles str": "COc1ccc(C(=O)/C=C/c2cc(-c3cc(OC)c(OC)c(OC)c3)n[nH]2)cc1",
    "result": 101
  },
  {
    "smiles str": "COc1cc2c(cc1OC)C(=O)/C(=C/c1cc(-c3ccc4c(c3)OCO4)n[nH]1)C2",
    "result": 101
  }
]

Input line: Specify reported growth at 0.1 µM for the compound shown: `COc1ccc(-c2cc(/C=C/C(=O)c3ccc(OC)c(OC)c3)[nH]n2)cc1`
Output line: 109

Numbers sourced from ChEMBL document CHEMBL4138123.
